Hi there, I'd appreciate the recorded pest or weed control at 140 g/ha for every entry that follows.
Tested on: test plant species
Test: Post-emergent herbicidal activity test (greenhouse, foliar spray, visual growth reduction)
Format: in vivo
Settings: post-emergence, 336 h, redroot pigweed (Amaranthus retroflexus), 14 Days After Application, 140 g ai/ha, read-out: Visual Growth Reduction (%) AMARE
Source text: Post-emergent Test: Seeds or nutlets of the desired test plant species were planted in Sun Gro Metro-Mix® 360 planting mixture, which typically has a pH of 6.0 to 6.8 and an organic matter content of about 30 percent, in plastic pots with a surface area of 64 square centimeters. In some aspects, to ensure good germination and healthy plants, a fungicide treatment and/or other chemical or physical treatment was applied. […]

// recorded pest or weed control at 140 g/ha for COC(=O)c1nc(-c2ccc3ncoc3c2)ccc1Cl : 0 to 29%

// recorded pest or weed control at 140 g/ha for COC(=O)c1nc(-c2ccc(C(F)(F)F)cc2OC)ncc1Cl : 45 to 59%

// recorded pest or weed control at 140 g/ha for COC(=O)c1nc(-c2ccc(F)c3c2OC(F)(F)O3)c(F)cc1Cl : 0 to 29%

// recorded pest or weed control at 140 g/ha for COC(=O)c1nc(-c2ccc(N)cc2F)c(F)cc1Cl : 0 to 29%

// recorded pest or weed control at 140 g/ha for COc1cc(-c2nc(C(=O)O)c(Cl)cc2F)c(Cl)cc1C(F)(F)F : 30 to 44%

// recorded pest or weed control at 140 g/ha for O=C(O)c1nc(-c2nc(Cl)c(C(F)(F)F)cc2Cl)ccc1Cl : 95 to 100%

// recorded pest or weed control at 140 g/ha for COC(=O)c1nc(-c2cc(OC)c3c(c2)OCO3)c(F)cc1Cl : 0 to 29%

// recorded pest or weed control at 140 g/ha for COC(=O)c1nc(-c2ccc(C(F)F)c(F)c2OC)c(F)cc1Cl : 95 to 100%

// recorded pest or weed control at 140 g/ha for COc1c(-c2nc(C(=O)O)c(Cl)cc2F)ccc(C(F)F)c1F : 95 to 100%

// recorded pest or weed control at 140 g/ha for COC(=O)c1nc(-c2ccc(C(F)(F)F)cc2F)ncc1Cl : 85 to 94%

// recorded pest or weed control at 140 g/ha for COC(=O)c1nc(-c2ccc(C(F)(F)F)c(Cl)c2)c(F)cc1Cl : 30 to 44%

// recorded pest or weed control at 140 g/ha for COC(=O)c1nc(-c2ccc(OS(=O)(=O)C(F)(F)F)cc2Cl)ccc1Cl : 60 to 74%

// recorded pest or weed control at 140 g/ha for COC(=O)c1nc(-c2ccc(C(F)(F)F)cc2F)c(F)cc1F : 95 to 100%

// recorded pest or weed control at 140 g/ha for COC(=O)c1cc2c(c(-c3ccc(Cl)c(C(=O)OC)n3)c1)OC(F)(F)O2 : 0 to 29%

// recorded pest or weed control at 140 g/ha for N#Cc1cc(-c2nc(C(=O)O)c(Cl)cc2F)c(Cl)cc1C(F)(F)F : 60 to 74%

// recorded pest or weed control at 140 g/ha for COC(=O)c1nc(-c2ccc(C(F)(F)F)c(C)c2)ccc1Cl : 45 to 59%

// recorded pest or weed control at 140 g/ha for COC(=O)c1nc(-c2ccc(C#N)cc2F)c(F)cc1Cl : 45 to 59%

// recorded pest or weed control at 140 g/ha for COC(=O)c1nc(-c2ccc(F)c(OC)c2)ccc1Cl : 0 to 29%

// recorded pest or weed control at 140 g/ha for O=C(O)c1nc(-c2ccc(C(F)(F)F)c(F)c2)ccc1Cl : 60 to 74%

// recorded pest or weed control at 140 g/ha for COc1cc(-c2ccc(Cl)c(C(=O)O)n2)ccc1C(F)(F)F : 0 to 29%

// recorded pest or weed control at 140 g/ha for COC(=O)c1nc(-c2ccc(C(F)(F)F)nc2F)c(F)cc1Cl : 60 to 74%
